Readings of CMV-LACZ in Myoblasts (β-galactosidase activity relative to DMSO) for the listed molecules
# Test system: β-galactosidase in CMV-LacZ C2C12 myoblasts
# run-description: CMV-LacZ secondary screen in C2C12 myoblasts (β-Gal stabilizing assay)
# Assay type: cell-based, mouse
# condition-parameters: 1 uM; CMV-LacZ C2C12 myoblasts
Enter the number alone.

INSERT INTO results (sample_smiles, reported_result) VALUES
  ('Cc1cccc(Cn2cnc3c(nnn3Cc3ccc(Cl)cc3)c2=O)c1', 1.1653),
  ('CNC(=O)CSc1nnc(-c2ccc3c(c2)OCO3)n1C', 1.0203);

Item under review: NS(=O)(=O)c1ccc(NC(=O)CN2CCc3ccccc32)cc1 . Reported CMV-LACZ in Myoblasts (β-galactosidase activity relative to DMSO)? 1.3763

Param item = COc1ccccc1CC(=O)Nc1cc(S(=O)(=O)N2CCOCC2)ccc1N1CCOCC1 ; retrieve measured CMV-LACZ in Myoblasts (β-galactosidase activity relative to DMSO). 0.8054

Which measured CMV-LACZ in Myoblasts (β-galactosidase activity relative to DMSO) value corresponds to O=C1Nc2ccccc2/C1=C/c1ccccc1F ? 1.1108

====

# Test system: β-galactosidase in CMV-LacZ C2C12 myotubes
# run-description: CMV-LacZ secondary screen in C2C12 myotubes (β-Gal stabilizing assay)
# Assay type: cell-based, mouse
# condition-parameters: 5 uM; C2C12 CMV-LacZ myotubes; fold relative to DMSO
Below: a set of entries, each annotated with reported CMV-LACZ in Myotubes, signal relative to DMSO.
Output spec: single numeric token, no unit.

Quick check: CMV-LACZ in Myotubes, signal relative to DMSO on β-galactosidase in CMV-LacZ C2C12 myotubes, item CNc1cc([N+](=O)[O-])ccc1OCc1ccccc1 ? 1.029

Write down the reported CMV-LACZ in Myotubes, signal relative to DMSO of CC(Oc1ccccc1)C(=O)N1CCN(C(=O)C(C)Oc2ccccc2)CC1 (stereo not drawn) , test system: β-galactosidase in CMV-LacZ C2C12 myotubes. 0.9904

Any idea what CMV-LACZ in Myotubes, signal relative to DMSO came out for COc1ccccc1C(=O)Nc1ccnn1C1CCN(C(=O)c2ccoc2)CC1 on β-galactosidase in CMV-LacZ C2C12 myotubes? 0.9984

====

# System: α7 integrin (LacZ reporter in α7βgal+/− myoblasts)
# run-description: Myoblast α7+/LacZ integrin FDG assay (Burkin assay in myoblasts, 96-well)
# Format: cell-based, mouse
# condition-parameters: 5 uM; α7+/LacZ myoblasts, 96-well
# strict inequality: Burkin Assay in Myoblasts, signal relative to DMSO < 1 yields rule met, everything else yields rule not met

INSERT INTO assay_data (molecule, measured_target, assigned_category) VALUES
  ('O=C(NCCc1ccc(Cl)cc1)C1CCCO1 (stereo not drawn)', 'α7 integrin (LacZ reporter in α7βgal+/− myoblasts)', 'rule not met'),
  ('Cc1nnc(SCC(=O)c2ccc(Br)cc2)s1', 'α7 integrin (LacZ reporter in α7βgal+/− myoblasts)', 'rule not met'),
  ('Cc1cccc(Sc2nc(-c3ccccc3)ccc2C#N)c1', 'α7 integrin (LacZ reporter in α7βgal+/− myoblasts)', 'rule not met'),
  ('C#CC1(O)CCC2C3CCC4=C/C(=N/OCC(=O)NCC(=O)NC(C(=O)O)C(C)C)CC[C@]4(C)C3CC[C@@]21C (stereo partly drawn)', 'α7 integrin (LacZ reporter in α7βgal+/− myoblasts)', 'rule not met'),
  ('CCOc1ccc(Br)cc1S(=O)(=O)Nc1ccc(C(=O)Nc2ccccc2OC)cc1', 'α7 integrin (LacZ reporter in α7βgal+/− myoblasts)', 'rule not met');

Burkin Assay in Myoblasts, signal relative to DMSO under 1? Item: CC1CCCCC12NC(=O)N(CC(=O)OCc1cccc(F)c1)C2=O (stereo not drawn) rule met

is_below(Burkin Assay in Myoblasts, signal relative to DMSO, 1) for CC(=O)Nc1ccc(N(C(=O)c2cnccn2)C(C(=O)NC2CCCCC2)c2ccc(F)cc2)cc1 (stereo not drawn) ? rule met

Could you please tell me whether Burkin Assay in Myoblasts, signal relative to DMSO recorded for CCOC(=O)c1nnn(-c2nonc2OC)c1-c1ccccc1 is less than 1? rule not met
